Data origin, for the record: paper PMC7195332

Each entry below carries its reported SPR binding CypD LE.
Assayed system: Recombinant human Cyclophilin D protein (amino acids 44-207, K175I) (Homo sapiens, UniProt P30405, K175I)
Sequence (P30405 44-207 K175I): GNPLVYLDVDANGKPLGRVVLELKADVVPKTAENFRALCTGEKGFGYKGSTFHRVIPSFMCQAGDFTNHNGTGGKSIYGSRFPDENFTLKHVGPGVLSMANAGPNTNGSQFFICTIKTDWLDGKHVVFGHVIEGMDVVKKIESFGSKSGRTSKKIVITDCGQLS
Experiment: CypD SPR binding assay
Condition notes: ligand binding efficiency based on SPR KDs
Reported endpoint: SPR binding CypD LE

{"Compound structure string": "CSc1ccccc1[C@H]1CCCN1C(=O)C(=O)NCc1ccc2c(c1)[C@H]1C[C@@H](N2)[C@H](O)CO1", "Reading": 0.16}
{"Compound structure string": "CCN1Cc2cc(CCC(=O)NCC(=O)N3CCC[C@@H]3c3ccccc3SC)ccc2NCCC1=O", "Reading": 0.21}
{"Compound structure string": "CCN1Cc2cc(CNC(=O)NCC(=O)N3CCC[C@@H]3c3ccccc3SC)ccc2NCCC1=O", "Reading": 0.25}
{"Compound structure string": "O=C(CN1C(=O)[C@@H]2[C@@H]3CC[C@@H](C3)[C@@H]2C1=O)NCc1ccc2c(c1)[C@H]1C[C@@H](N2)[C@H](O)CO1", "Reading": 0.26}
{"Compound structure string": "O=C(NCc1ccc2c(c1)[C@@H]1C[C@H](N2)[C@H](O)CO1)C(=O)N1CCCC1", "Reading": 0.19}
{"Compound structure string": "O=C(CN1C(=O)[C@@H]2[C@H]3CC[C@H](C3)[C@@H]2C1=O)NCc1ccc2c(c1)[C@H]1C[C@@H](N2)[C@H](O)CO1", "Reading": 0.25}
{"Compound structure string": "CCN1Cc2cc(NC(=O)NCC(=O)N3CCC[C@@H]3c3ccccc3SC)ccc2NCCC1=O", "Reading": 0.13}
{"Compound structure string": "CCN1Cc2cc(CCC(=O)NCCC(=O)N3CCC[C@@H]3c3ccccc3SC)ccc2NCCC1=O", "Reading": 0.12}
